- target.under.test: Neuronal acetylcholine receptor subunit alpha-7 (Rattus norvegicus, UniProt Q05941)
- Sequence (Q05941 whole entry): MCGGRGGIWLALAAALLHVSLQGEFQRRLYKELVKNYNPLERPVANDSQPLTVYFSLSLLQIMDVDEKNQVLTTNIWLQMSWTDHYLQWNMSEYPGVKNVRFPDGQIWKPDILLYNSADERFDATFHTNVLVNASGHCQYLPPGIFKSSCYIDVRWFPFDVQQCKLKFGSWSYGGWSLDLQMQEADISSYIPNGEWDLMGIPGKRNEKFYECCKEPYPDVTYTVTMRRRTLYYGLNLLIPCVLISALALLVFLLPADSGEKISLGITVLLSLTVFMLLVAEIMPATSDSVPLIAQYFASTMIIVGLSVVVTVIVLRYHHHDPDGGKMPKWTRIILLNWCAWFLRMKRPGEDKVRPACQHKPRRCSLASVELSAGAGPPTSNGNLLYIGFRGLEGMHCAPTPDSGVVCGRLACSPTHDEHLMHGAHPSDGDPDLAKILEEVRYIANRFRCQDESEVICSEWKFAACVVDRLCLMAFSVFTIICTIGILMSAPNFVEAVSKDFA
- assay.summary: Displacement of [3H]epibatidine from alpha7 nAChR in rat brain membranes after 2 hrs
measurement.type: Ki

Form field Ki for item CN1C2CCCC1CC(N1C(=O)Cc3ccccc31)C2 (stereo unspecified) on Neuronal acetylcholine receptor subunit alpha-7 (Rattus norvegicus, UniProt Q05941): > 100 µM
